Tested on: subgenomic RSV replicon
Format: cell-based, Respiratory syncytial virus
Settings: read-out: Replicon EC50; APC126-E RSV replicon cells, 48 hours, luminescence
ENDPOINT_NAME: pEC50
One number for each entry, as −log10 of the molar value.

Consider the worked cases shown below.
COMPOUND_STRUCTURE	ENDPOINT_RESULT
O=S(=O)(c1cccs1)N1CCCCN2[C@H](CO)[C@@H](c3ccc(/C=C/c4ccccc4)cc3)[C@@H]2C1	5.37
Cc1cccc(-c2ccc([C@@H]3[C@@H](CO)N4CCCCN(S(=O)(=O)c5cn(C)cn5)C[C@@H]34)cc2)c1	5.38
COc1cc(CN2CC3(CCN(S(=O)(=O)c4cn(C)cn4)CC3)c3c(n(C)c4cc(OC)ccc34)[C@H]2CO)cc(OC)c1	5.14
Cn1cnc(S(=O)(=O)N2CCCCN3[C@H](CO)[C@@H](c4ccc(-c5ccc(F)cc5)cc4)[C@@H]3C2)c1	5.37
CN1c2ccc(-c3ccc(C#N)cc3)cc2[C@H]2[C@H](CCN2C(=O)c2cccc(F)c2)[C@@H]1CO	4.97

Here's the next entry for you.
Query block: I am curious: what pEC50 value has been reported for `COc1ccc2c3c([nH]c2c1)[C@H](CO)N(Cc1ccccc1)CC31CCN(C(=O)Cc2ccccc2)CC1` ?
Result block: 5.31

----------
Give measured Solubility for each item. Keep answers brief.
Assay: Aqueous solubility
Assay type: physicochemical
One number for each entry, in µM.

Consider the worked cases shown below.
MOLECULE	MEASUREMENT_UNITS	Solubility
COc1cc(CN2CC3(CCN(S(=O)(=O)c4cn(C)cn4)CC3)c3c(n(C)c4cc(OC)ccc34)[C@H]2CO)cc(OC)c1 [BRD3482]	µM	22
COc1ccc2c3c([nH]c2c1)[C@H](CO)N(Cc1ccccc1)CC31CCN(C(=O)Cc2ccccc2)CC1 [BRD5449]	µM	16
Cc1cccc(-c2ccc([C@@H]3[C@@H](CO)N4CCCCN(S(=O)(=O)c5cn(C)cn5)C[C@@H]34)cc2)c1 [BRD3969]	µM	49

Here's the next entry for you.
Query block: I am curious: what Solubility value has been reported for Cn1cnc(S(=O)(=O)N2CCCCN3[C@H](CO)[C@@H](c4ccc(-c5ccc(F)cc5)cc4)[C@@H]3C2)c1 [BRD65768] ?
Result block: 121

----------
Experiment: Plasma protein binding
Format: in vitro ADME
ENDPOINT_NAME: PPB (% free)

Consider the worked cases shown below.
COMPOUND_STRUCTURE	PPB (% free)
Cn1cnc(S(=O)(=O)N2CCCCN3[C@H](CO)[C@@H](c4ccc(-c5ccc(F)cc5)cc4)[C@@H]3C2)c1	2.1 % free
COc1cc(CN2CC3(CCN(S(=O)(=O)c4cn(C)cn4)CC3)c3c(n(C)c4cc(OC)ccc34)[C@H]2CO)cc(OC)c1	3.8 % free

Batch: PPB (% free) for all items listed.
1. O=S(=O)(c1cccs1)N1CCCCN2[C@H](CO)[C@@H](c3ccc(/C=C/c4ccccc4)cc3)[C@@H]2C1
2. COc1ccc2c3c([nH]c2c1)[C@H](CO)N(Cc1ccccc1)CC31CCN(C(=O)Cc2ccccc2)CC1
3. Cc1cccc(-c2ccc([C@@H]3[C@@H](CO)N4CCCCN(S(=O)(=O)c5cn(C)cn5)C[C@@H]34)cc2)c1

Result block:
["<1 % free", "<1 % free", "1.6 % free"]

----------
Test system: RSV B Washington
Type: cell-based, Respiratory syncytial virus
Conditions: read-out: RSV B EC50, Hep2 cells, CPE assay
pEC50: −log10 of the molar value.
ENDPOINT_NAME: pEC50

Consider the worked cases shown below.
COMPOUND_STRUCTURE	MEASURED_TARGET	ENDPOINT_RESULT
Cn1cnc(S(=O)(=O)N2CCCCN3[C@H](CO)[C@@H](c4ccc(-c5ccc(F)cc5)cc4)[C@@H]3C2)c1	RSV B Washington	< 4.30
O=S(=O)(c1cccs1)N1CCCCN2[C@H](CO)[C@@H](c3ccc(/C=C/c4ccccc4)cc3)[C@@H]2C1	RSV B Washington	< 4.30
COc1ccc2c3c([nH]c2c1)[C@H](CO)N(Cc1ccccc1)CC31CCN(C(=O)Cc2ccccc2)CC1	RSV B Washington	< 4.30

Batch: pEC50 for all items listed.
1. Cc1cccc(-c2ccc([C@@H]3[C@@H](CO)N4CCCCN(S(=O)(=O)c5cn(C)cn5)C[C@@H]34)cc2)c1
2. COc1cc(CN2CC3(CCN(S(=O)(=O)c4cn(C)cn4)CC3)c3c(n(C)c4cc(OC)ccc34)[C@H]2CO)cc(OC)c1
3. CN1c2ccc(-c3ccc(C#N)cc3)cc2[C@H]2[C@H](CCN2C(=O)c2cccc(F)c2)[C@@H]1CO

Result block:
< 4.30
5.33
5.26

----------
Give measured Rhep for each item. Keep answers brief.
Assay: Hepatic clearance
Format: in vitro ADME
Answers are plain numbers, in μL/min/10^6 cells.

Consider the worked cases shown below.
COMPOUND_STRUCTURE	ENDPOINT_NAME	MEASUREMENT_UNITS	ENDPOINT_RESULT
Cc1cccc(-c2ccc([C@@H]3[C@@H](CO)N4CCCCN(S(=O)(=O)c5cn(C)cn5)C[C@@H]34)cc2)c1	Rhep	μL/min/10^6 cells	61.7
O=S(=O)(c1cccs1)N1CCCCN2[C@H](CO)[C@@H](c3ccc(/C=C/c4ccccc4)cc3)[C@@H]2C1	Rhep	μL/min/10^6 cells	67.8
Cn1cnc(S(=O)(=O)N2CCCCN3[C@H](CO)[C@@H](c4ccc(-c5ccc(F)cc5)cc4)[C@@H]3C2)c1	Rhep	μL/min/10^6 cells	23.6

Query block: I am curious: what Rhep value has been reported for `COc1ccc2c3c([nH]c2c1)[C@H](CO)N(Cc1ccccc1)CC31CCN(C(=O)Cc2ccccc2)CC1` ?
Result block: 194

----------
Experiment: Microsomal stability
Type: in vitro ADME
Details: human liver microsomes
ENDPOINT_NAME: HLM (µL/min/mg)
Give bare numbers, in µL/min/mg.

MOLECULE	MEASUREMENT_UNITS	ENDPOINT_RESULT
O=S(=O)(c1cccs1)N1CCCCN2[C@H](CO)[C@@H](c3ccc(/C=C/c4ccccc4)cc3)[C@@H]2C1 [BRD9101]	µL/min/mg	57.1

Batch: HLM for all items listed.
1. Cc1cccc(-c2ccc([C@@H]3[C@@H](CO)N4CCCCN(S(=O)(=O)c5cn(C)cn5)C[C@@H]34)cc2)c1 [BRD3969]
2. Cn1cnc(S(=O)(=O)N2CCCCN3[C@H](CO)[C@@H](c4ccc(-c5ccc(F)cc5)cc4)[C@@H]3C2)c1 [BRD65768]
3. COc1ccc2c3c([nH]c2c1)[C@H](CO)N(Cc1ccccc1)CC31CCN(C(=O)Cc2ccccc2)CC1 [BRD5449]

Result block:
77.9
41.2
465

----------
Assay: LogD
Type: physicochemical
ENDPOINT_NAME: LogD

COMPOUND_STRUCTURE	LogD
Cn1cnc(S(=O)(=O)N2CCCCN3[C@H](CO)[C@@H](c4ccc(-c5ccc(F)cc5)cc4)[C@@H]3C2)c1	3.3

Batch: LogD for all items listed.
1. O=S(=O)(c1cccs1)N1CCCCN2[C@H](CO)[C@@H](c3ccc(/C=C/c4ccccc4)cc3)[C@@H]2C1
2. COc1ccc2c3c([nH]c2c1)[C@H](CO)N(Cc1ccccc1)CC31CCN(C(=O)Cc2ccccc2)CC1

Result block:
1. >4.8
2. >4.4

Batch: LogD for all items listed.
1. Cc1cccc(-c2ccc([C@@H]3[C@@H](CO)N4CCCCN(S(=O)(=O)c5cn(C)cn5)C[C@@H]34)cc2)c1
2. COc1cc(CN2CC3(CCN(S(=O)(=O)c4cn(C)cn4)CC3)c3c(n(C)c4cc(OC)ccc34)[C@H]2CO)cc(OC)c1

Result block:
[3.6, 2.9]
